Source: paper PMC4811560

Reported Cross-reactivity MBP-aABA-scFv by item:
- System: MBP-antiABA-scFv
- MEASUREMENT PROTOCOL: SPR affinity in solution (competitive titration) of test compounds for the scFv
- Format: binding, mouse
- APPLIED CONDITIONS: from KA relative to (+)-ABA = 100%
State the answer as a number, implicitly in %.

Examples from the recorded data:
1) CC(C=CC12OC1(C)CC(O)CC2(C)C)=CC=O (centres unmarked) [Xanthoxin] : 0.0002
2) CC(=C/C(=O)O)/C=C/[C@]1(O)[C@@]2(C)CO[C@]1(C)CC(=O)C2 [Phaseic acid] : 0.029
3) O=C(O)c1ccccc1 [Benzoic acid] : 0.00003
4) NCCCCC(N)C(=O)O (racemic) [D,L-Lysine] : 0.00006
5) C=C1C[C@]23C[C@@]1(O)CC[C@H]2[C@@]12C=C[C@H](O)[C@@](C)(C(=O)O1)[C@H]2[C@@H]3C(=O)O [Gibberellic acid] : 0.00001
6) CC(C=CC1(O)C2(C)COC1(C)CC(O)C2)=CC(=O)O (centres unmarked) [Dihydrophaseic acid] : 0.156
7) CC(C=CC1C(C)=CC(=O)CC1(C)C)=CC(=O)O (mixture of isomers) [2-cis-(R,S)-(±)-1’-deoxy-ABA] : 0.309
8) CC(C)=CCC/C(C)=C/CC/C(C)=C/CO [All-trans-Farnesol] : 0.00002
9) CC(C=CC1(O)C(C)=CC(=O)CC1(C)C)=CC(=O)O (racemic) [2-cis-(R,S)-(±)-ABA] : 44.25
10) O=C(O)Cc1c[nH]c2ccccc12 [Indole-3-acetic acid] : 0.00005

# ---- query compound ----
Which measured Cross-reactivity MBP-aABA-scFv value corresponds to CC1=CC(=O)CC(C)(C)[C@@]1(O)/C=C/C(C)=C\C(=O)O [2-cis-(S)-(+)-ABA] ?
100
